# Protocol text: Single-dose pharmacokinetics in male Wistar rats
# Format: in vivo
# Assay setup: rat, plasma, iv, 1 mg kg^–1 i.v., read-out: Vss
Experimental endpoint: Vd (L/kg)

[
  {
    "Cpd smiles": "Cn1c(C(C)(C)C)cc(=NC(=O)c2cc(C(F)(F)F)ccc2OCC(C)(C)O)n1CC1CCC1",
    "Unit symbol": "L/kg",
    "Meas value": 1.6
  }
]

src = paper PMC11320734
